B1: Ventral anterior homeobox 1, residues 102 to 157; numbered along this chain, Q5SQQ9 (parent)
chain: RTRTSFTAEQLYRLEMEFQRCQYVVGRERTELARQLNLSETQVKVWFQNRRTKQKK

variants of: B1; assay: abundance fitness (aPCA) (normalised: wild type 0, dead -1); higher = more abundant; growth selection in yeast, the domain comes from the species named; conditions: Homo sapiens
Here the recorded abundance fitness is given for each entry.

| mutant | abundance fitness |
| --- | --- |
| W46S | -0.627 |
| L36Y | -0.858 |
| V43Q | -0.817 |
| T52R | -0.249 |
| S5I | -0.177 |
| Q35I | -0.236 |
| R51V | -0.319 |
| V45F | -0.03 |
| T52P | -0.558 |
| K44F | -0.464 |
| Q22D | -0.081 |
| N49T | 0.072 |
| E9F | 0.005 |
| T4H | -0.49 |
| Q42I | 0.007 |
| K55C | -0.091 |
| R13H | -0.066 |
| T41V | -0.104 |
| Q35D | -0.005 |
| Q54R | -0.237 |
| Q19Y | -0.603 |
| A8V | -0.154 |
